Listed below: Population Mitochondria Different-Phenotype (%) values for each entry.
Tested on: Fibroblast
Assay: Multiplex assay against human fibroblast
Assay type: toxicity, cell-based
Details: 24 h, 10 µM, compound concentration 10 uM, replicate 1
ATTRIBUTE MEASURED: Population Mitochondria Different-Phenotype (%)

[[record]]
compound = "N#CCNC(=O)c1ccc(-c2ccnc(Nc3ccc(N4CCOCC4)cc3)n2)cc1"
units_symbol = "%"
assay_result = 12

[[record]]
compound = "CC(Cc1ccc(O)c(O)c1)C(C)Cc1ccc(O)c(O)c1 (stereo not given) [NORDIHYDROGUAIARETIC ACID]"
units_symbol = "%"
assay_result = 5

[[record]]
compound = "CC(C)[C@H](CO)Nc1nc(Nc2cccc(Cl)c2)c2ncn(C(C)C)c2n1"
units_symbol = "%"
assay_result = 63

[[record]]
compound = "CCCCN(CC)c1nc(C)nc2c1c(C)cn2-c1c(C)cc(C)cc1C.Cl"
units_symbol = "%"
assay_result = 32

[[record]]
compound = "Cc1c(P(=S)(c2ccccc2)c2ccccc2)n2ccccc2[n+]1C/C=C/c1ccccc1.[Br-]"
units_symbol = "%"
assay_result = 83


====

Tested on: HEK-293T
Test: Incucyte cell viability with HEK293T; further: filed as whole numbers so only -1 and 0 and 1 occur
Assay type: toxicity, cell-based
Details: human, 18 h, 10 µM, compound concentration 10 uM, replicate number 1, timepoint 18 hours
ATTRIBUTE MEASURED: Growth Rate

[[record]]
compound = "CC(C)(C)c1ccc(C(=O)Nc2cn3cc(-n4ccnc4)ccc3n2)cc1.Cl.Cl"
assay_result = 0

[[record]]
compound = "Cl.NC[C@@H]1O[C@H](C23CC4CC(CC(C4)C2)C3)Cc2c1ccc(O)c2O"
assay_result = 0

[[record]]
compound = "NS(=O)(=O)c1cc(NC(=O)Cc2ccccc2)ccc1Oc1cccc(Cl)c1"
assay_result = 0

[[record]]
compound = "CCCCCNC(=N)N/N=C/c1c[nH]c2ccc(OC)cc12.O=C(O)/C=C\\C(=O)O [TEGASEROD MALEATE]"
assay_result = 0

[[record]]
compound = "CCN1CCC[C@H]1CNC(=O)c1c(OC)ccc(Br)c1OC [REMOXIPRIDE]"
assay_result = 1

[[record]]
compound = "COc1ccc2c(c1)O[C@@H](c1ccc(OC)c(OC)c1)C[C@H]2NC(=O)C1(c2ccc3c(c2)OC(F)(F)O3)CC1"
assay_result = 0

[[record]]
compound = "NC(=O)[C@@H]1CCCN1C(=O)[C@H](Cc1cnc[nH]1)NC(=O)[C@@H]1CCC(=O)N1"
assay_result = 1

[[record]]
compound = "CCCCN(CC)c1nc(C)nc2c1c(C)cn2-c1c(C)cc(C)cc1C.Cl"
assay_result = 0


====

System: HEK-293T
Assay: Multiplex assay against HEK293T
Type: toxicity, cell-based
Details: human, 12 h, 1 µM, compound concentration 1 uM, replicate 1
ATTRIBUTE MEASURED: Population Normal (%)

[[record]]
compound = "Oc1cccc(-c2nc(N3CCOCC3)c3oc4ncccc4c3n2)c1 [PI-103]"
attribute_measured = "Population Normal (%)"
assay_result = 78

[[record]]
compound = "CC(C)c1cc(Nc2nc(N3CCC[C@H](N)C3)ncc2C(N)=O)cc(C(C)C)n1"
attribute_measured = "Population Normal (%)"
assay_result = 88

[[record]]
compound = "CC[C@H](Nc1ncnc2[nH]cnc12)c1nc2cccc(F)c2c(=O)n1-c1ccccc1 [IDELALISIB]"
attribute_measured = "Population Normal (%)"
assay_result = 85

[[record]]
compound = "C[C@@H](Oc1cc(-n2cnc3ccc(CN4CCN(C)CC4)cc32)sc1C(N)=O)c1ccccc1C(F)(F)F [GSK-461364]"
attribute_measured = "Population Normal (%)"
assay_result = 82

[[record]]
compound = "C=CC(=O)Nc1cc(-n2c(=O)ccc3cnc4ccc(-c5ccc(NS(C)(=O)=O)cc5)cc4c32)ccc1C"
attribute_measured = "Population Normal (%)"
assay_result = 77

[[record]]
compound = "CC(/C=C1\\SC(=S)N(CCCC(=O)Nc2ccc(C(=O)O)c(O)c2)C1=O)=C\\c1ccccc1"
attribute_measured = "Population Normal (%)"
assay_result = 90

[[record]]
compound = "CN1C(=O)[C@@H](NC(=O)c2cc3ccccc3[nH]2)N=C(c2ccccc2)c2ccccc21 [DEVAZEPIDE]"
attribute_measured = "Population Normal (%)"
assay_result = 88

[[record]]
compound = "CCOc1ccn(-c2ccc(F)cc2)c(=O)c1C(=O)Nc1ccc(Oc2ccnc(N)c2Cl)c(F)c1 [BMS-777607]"
attribute_measured = "Population Normal (%)"
assay_result = 89

[[record]]
compound = "CCCCN(CC)c1nc(C)nc2c1c(C)cn2-c1c(C)cc(C)cc1C.Cl"
attribute_measured = "Population Normal (%)"
assay_result = 83


====

System: HEK-293T
Experiment: Multiplex assay against HEK293T
Assay type: toxicity, cell-based
Conditions: human, 24 h, 1 µM, compound concentration 1 uM, replicate 2
Listed below: Population Healthy Nuclei (%) values for each entry.
ATTRIBUTE MEASURED: Population Healthy Nuclei (%)

[[record]]
molecule = "CC[C@@H]1C(=O)N(C)c2cnc(Nc3ccc(C(=O)NC4CCN(C)CC4)cc3OC)nc2N1C1CCCC1 [BI-2536]"
target_under_test = "HEK-293T"
assay_result = 66

[[record]]
molecule = "CCCc1cc(C)[nH]c(=O)c1CNC(=O)c1cc(-c2ccc(N3CCN(C(C)C)CC3)nc2)cc2c1cnn2C(C)C"
target_under_test = "HEK-293T"
assay_result = 52

[[record]]
molecule = "Cc1ccc(NC(=O)Nc2cc(C(F)(F)F)ccc2F)cc1Nc1ccc2c(c1)NC(=O)/C2=C\\c1ccc[nH]1"
target_under_test = "HEK-293T"
assay_result = 82

[[record]]
molecule = "C[C@@H](Oc1cc(-n2cnc3ccc(CN4CCN(C)CC4)cc32)sc1C(N)=O)c1ccccc1C(F)(F)F [GSK-461364]"
target_under_test = "HEK-293T"
assay_result = 43

[[record]]
molecule = "CCCCN(CC)c1nc(C)nc2c1c(C)cn2-c1c(C)cc(C)cc1C.Cl"
target_under_test = "HEK-293T"
assay_result = 61

[[record]]
molecule = "Cc1c(Nc2ccc(S(=O)(=O)N3CCN(C)CC3)cc2F)nc2ccc(-c3cnn(C4CC4)c3)cn2c1=O"
target_under_test = "HEK-293T"
assay_result = 74

[[record]]
molecule = "CC[C@H](Nc1ncnc2[nH]cnc12)c1nc2cccc(F)c2c(=O)n1-c1ccccc1 [IDELALISIB]"
target_under_test = "HEK-293T"
assay_result = 77

[[record]]
molecule = "CN1C(=O)[C@@H](NC(=O)c2cc3ccccc3[nH]2)N=C(c2ccccc2)c2ccccc21 [DEVAZEPIDE]"
target_under_test = "HEK-293T"
assay_result = 57

[[record]]
molecule = "Cc1ccc(S(=O)(=O)NC2c3ccccc3Oc3ccccc32)cc1"
target_under_test = "HEK-293T"
assay_result = 55

[[record]]
molecule = "NC(=O)c1ccc2nc(-c3ccc(C4(N)CCC4)cc3)c(-c3ccccc3)n2n1 [BAY-1125976]"
target_under_test = "HEK-293T"
assay_result = 76

[[record]]
molecule = "CC(/C=C1\\SC(=S)N(CCCC(=O)Nc2ccc(C(=O)O)c(O)c2)C1=O)=C\\c1ccccc1"
target_under_test = "HEK-293T"
assay_result = 62

[[record]]
molecule = "Cc1c(Nc2ccc(S(=O)(=O)N3CCN(C)CC3)cc2F)nc2ccc(Nc3cnn(C4CC4)c3)cn2c1=O"
target_under_test = "HEK-293T"
assay_result = 85

[[record]]
molecule = "Cc1c(P(=S)(c2ccccc2)c2ccccc2)n2ccccc2[n+]1C/C=C/c1ccccc1.[Br-]"
target_under_test = "HEK-293T"
assay_result = 41

[[record]]
molecule = "N#Cc1cccc(C(=O)Nc2cc(-c3ccccc3)nn2-c2ccccc2)c1"
target_under_test = "HEK-293T"
assay_result = 53

[[record]]
molecule = "Cl.NC[C@@H]1O[C@H](C23CC4CC(CC(C4)C2)C3)Cc2c1ccc(O)c2O"
target_under_test = "HEK-293T"
assay_result = 67

[[record]]
molecule = "Cl.Cn1c2c(c3ccc(Cl)c(Cl)c31)C(C#N)C1(CCNCC1)NC2=O (centres undefined)"
target_under_test = "HEK-293T"
assay_result = 72

[[record]]
molecule = "Oc1cccc(-c2nc(N3CCOCC3)c3oc4ncccc4c3n2)c1 [PI-103]"
target_under_test = "HEK-293T"
assay_result = 26

[[record]]
molecule = "C=CC(=O)Nc1cc(-n2c(=O)ccc3cnc4ccc(-c5ccc(NS(C)(=O)=O)cc5)cc4c32)ccc1C"
target_under_test = "HEK-293T"
assay_result = 58

[[record]]
molecule = "N#CCNC(=O)c1ccc(-c2ccnc(Nc3ccc(N4CCOCC4)cc3)n2)cc1 [MOMELOTINIB]"
target_under_test = "HEK-293T"
assay_result = 63

[[record]]
molecule = "CN(c1cc(C(F)(F)F)nc(OCCC(=O)O)n1)c1cccc2c1CCC2"
target_under_test = "HEK-293T"
assay_result = 65

[[record]]
molecule = "CCOc1ccn(-c2ccc(F)cc2)c(=O)c1C(=O)Nc1ccc(Oc2ccnc(N)c2Cl)c(F)c1 [BMS-777607]"
target_under_test = "HEK-293T"
assay_result = 84

[[record]]
molecule = "CCOC(=O)CCNc1cc(N2CCc3ccccc3CC2)nc(-c2ccccn2)n1"
target_under_test = "HEK-293T"
assay_result = 73

[[record]]
molecule = "CC(C)[C@H](CO)Nc1nc(Nc2cccc(Cl)c2)c2ncn(C(C)C)c2n1 [PURVALANOLA]"
target_under_test = "HEK-293T"
assay_result = 63

[[record]]
molecule = "CC(C)c1cc(Nc2nc(N3CCC[C@H](N)C3)ncc2C(N)=O)cc(C(C)C)n1"
target_under_test = "HEK-293T"
assay_result = 40

[[record]]
molecule = "c1ccc(-c2oc3ncnc(NC[C@@H]4CCCO4)c3c2-c2ccccc2)cc1"
target_under_test = "HEK-293T"
assay_result = 74

[[record]]
molecule = "CCCCCNC(=N)N/N=C/c1c[nH]c2ccc(OC)cc12.O=C(O)/C=C\\C(=O)O [TEGASEROD MALEATE]"
target_under_test = "HEK-293T"
assay_result = 54

[[record]]
molecule = "CC(C)C[C@H](NC(=O)[C@H](Cc1ccccc1)NC(=O)CNC(=O)CNC(=O)[C@@H](N)Cc1ccc(O)cc1)C(=O)O [ENKEPHALIN]"
target_under_test = "HEK-293T"
assay_result = 66

[[record]]
molecule = "CC(Cc1ccc(O)c(O)c1)C(C)Cc1ccc(O)c(O)c1 (centres undefined) [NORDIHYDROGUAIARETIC ACID]"
target_under_test = "HEK-293T"
assay_result = 48

